System: Salmonella typhimurium
measurement.protocol: Antibacterial activity against Salmonella enterica serovar Typhimurium LT2 after 14 to 16 hrs by broth dilution method
Format: functional, Salmonella enterica subsp. enterica serovar Typhimurium
Please provide measured MIC for the entries that follow.

Recorded MIC, per entry:
CC(=O)O[C@H]1C[C@@]2(C)[C@@H](C[C@@H](O)[C@H]3[C@@]4(C)CC[C@@H](O)[C@@H](C)[C@@H]4CC[C@@]32C)/C1=C(\CCC=C(C)C)C(=O)O [FUSIDIC ACID]: > 1020 µg/mL
CO[C@@H]1[C@@H](OC(N)=O)[C@@H](O)[C@H](Oc2ccc3c(O)c(NC(=O)c4ccc(O)c(CC=C(C)C)c4)c(=O)oc3c2C)OC1(C)C [NOVOBIOCIN]: > 1020 µg/mL
O=C(O)c1cn(C2CC2)c2cc(N3CCNCC3)c(F)cc2c1=O [CIPROFLOXACIN]: ≤ 0.03 µg/mL

Query: Find the recorded MIC belonging to NCCCNCCCCNCCCN [SPERMINE] and report it.
Response: 2000 µM

// provenance: ChEMBL document CHEMBL1145495
